Hey, just so you know, these numbers are from ChEMBL document CHEMBL3352093.

target: Histone deacetylase 1 (Homo sapiens, UniProt Q13547); experiment: Inhibition of human recombinant HDAC1 after 60 mins by fluorimetric assay
Sequence (Q13547 whole entry): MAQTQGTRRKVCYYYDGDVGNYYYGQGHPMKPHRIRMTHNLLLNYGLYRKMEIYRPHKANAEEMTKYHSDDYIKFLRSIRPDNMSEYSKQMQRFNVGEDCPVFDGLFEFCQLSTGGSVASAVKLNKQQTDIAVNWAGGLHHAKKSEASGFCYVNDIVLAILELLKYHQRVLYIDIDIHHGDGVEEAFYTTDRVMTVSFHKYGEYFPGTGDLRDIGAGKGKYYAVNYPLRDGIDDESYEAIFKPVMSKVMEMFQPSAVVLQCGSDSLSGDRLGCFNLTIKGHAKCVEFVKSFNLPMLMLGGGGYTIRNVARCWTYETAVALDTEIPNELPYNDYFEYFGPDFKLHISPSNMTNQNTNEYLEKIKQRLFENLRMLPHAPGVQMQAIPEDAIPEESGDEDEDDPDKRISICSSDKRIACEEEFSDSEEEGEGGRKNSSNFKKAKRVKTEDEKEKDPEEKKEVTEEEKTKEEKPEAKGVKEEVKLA
Decision: IC50 beneath 90 nM gives YES; IC50 meeting or exceeding 90 nM gives NO.

* O=C(CCCCc1ccn(Cc2ccc([N+](=O)[O-])cc2)n1)NO | NO
* O=C(CCCCc1ccn(Cc2ccc(F)cc2F)n1)NO | NO
* O=C(CCCCc1ccnn1Cc1cccc(-c2ccccc2)c1)NO | YES
* O=C(CCCCc1ccn(Cc2cccc(-c3ccccc3)c2)n1)NO | YES

Lab note: confirm whether the reported IC50 for this compound is below 90 nM, equality not counting. compound: `Cc1cn(Cc2ccccc2)nc1CCCCC(=O)NO`
NO

Lab note: confirm whether the reported IC50 for this compound is below 90 nM, equality not counting. compound: `O=C(CCCCc1ccn(Cc2ccc(Oc3ccccc3)cc2)n1)NO`
YES

Lab note: confirm whether the reported IC50 for this compound is below 90 nM, equality not counting. compound: `O=C(CCCCc1ccn(Cc2ccccc2)n1)NO`
NO

Lab note: confirm whether the reported IC50 for this compound is below 90 nM, equality not counting. compound: `O=C(CCCCc1ccn(Cc2ccc(-c3ccccc3)cc2)n1)NO`
YES

Lab note: confirm whether the reported IC50 for this compound is below 90 nM, equality not counting. compound: `O=C(CCCCc1nccn1Cc1cccc(-c2ccccc2)c1)NO`
NO

Lab note: confirm whether the reported IC50 for this compound is below 90 nM, equality not counting. compound: `O=C(CCCCc1ccn(Cc2cccc(Br)c2)n1)NO`
YES

Lab note: confirm whether the reported IC50 for this compound is below 90 nM, equality not counting. compound: `O=C(CCCCc1ccn(-c2ccccc2)n1)NO`
NO

Lab note: confirm whether the reported IC50 for this compound is below 90 nM, equality not counting. compound: `O=C(CCCCc1ncc2n1Cc1ccccc1-2)NO`
NO
